Assay: Measurement of pKa value of the dyes (spectrophotometric titration)
Assay type: physicochemical
Conditions: DMF/water (1/1), titration from pH 2 with NaOH, UV-vis inflection point
OBSERVED_PROPERTY: pKa

Sample records with pKa:
CCSc1nsc(/N=N/c2cc(Cl)c(O)cc2Cl)n1 [Dye 26, reference compound] | 3.5
CCSc1nsc(/N=N/c2cc(Cl)c(O)c(NC(=O)CC)c2)n1 [Dye 25, reference compound] | 3.0

I: CCC(=O)Nc1cc(/N=N/c2nc(C)ns2)cc(Cl)c1O [Dye 29, reference compound]
II: Cc1nsc(/N=N/c2ccc(O)c(Cl)c2)n1 [Dye 31, reference compound]
Asked: Hello, I am sorting some records. Could you say if I or II has the smaller pKa value? Write the label of whichever entry you select.
Given back: I

====

Assay: Measurement of pKa value of the dyes (spectrophotometric titration)
Type: physicochemical
Settings: DMF/water (1/1 v/v) solution, titration from pH 2 with NaOH, UV-vis inflection point, read-out: pKa
OBSERVED_PROPERTY: pKa

CS(=O)(=O)Nc1cccc2c(O)ccc(/N=N/c3snc4ccc(S(N)(=O)=O)cc34)c12 [Dye 10] | 5

A: CC(=O)Nc1cc(/N=N/c2ccc(S(C)(=O)=O)cc2C#N)c2ccccc2c1O [Dye 4]
B: CC(=O)Nc1cc(/N=N/c2snc3ccc(S(N)(=O)=O)cc23)c(Cl)c(Cl)c1O [Dye 27, reference compound]
C: CCC(=O)Nc1cc(/N=N/c2nccs2)cc(Cl)c1O [Dye 28, reference compound]
Asked: Given 3 compounds, produce a descending ranking by pKa. Give the labels in the order requested.
Given back: A, C, B

====

Assay: Measurement of pKa value of the dyes (spectrophotometric titration)
Type: physicochemical
Conditions: DMF/water (1/1), titration from pH 2 with NaOH, UV-vis inflection point
OBSERVED_PROPERTY: pKa

CC(=O)Nc1cc(/N=N/c2nncs2)ccc1O | 6.0

a: CS(=O)(=O)Nc1cccc2c(O)ccc(N=Nc3nc4ccccc4s3)c12
b: CCC(=O)Nc1cc(N=Nc2snc3ccc(S(N)(=O)=O)cc23)cc(Cl)c1O
Asked: Decide: a or b , by lowest recorded pKa. When you have decided, please share the label of that item.
Given back: b
(b: 4.0, a: 6.1)

I: CCSc1nnc(N=Nc2ccc(O)c3cccc(NS(C)(=O)=O)c23)s1
II: CS(=O)(=O)c1ccc(/N=N/c2ccc(O)c3ccccc23)c(C#N)c1
Asked: Rank I against II by their pKa values and give the higher one. In your reply, give the label of the chosen option.
Given back: II

a: CSc1nnc(/N=N/c2ccc(O)c(NC(C)=O)c2)s1
b: CNS(=O)(=O)c1ccc2nsc(/N=N/c3cc(NC(C)=O)c(O)c(NC(C)=O)c3)c2c1 [Dye 39, reference compound]
Asked: Hi, I'm comparing a with b and wondering which one has the bigger number for pKa. Any idea? Write the label of whichever entry you select.
Given back: a
(a: 6.1, b: 3.9)

====

Test: Measurement of pKa value of the dyes (spectrophotometric titration)
Type: physicochemical
Conditions: DMF/water (1/1), titration from pH 2 with NaOH, UV-vis inflection point
OBSERVED_PROPERTY: pKa

NS(=O)(=O)c1ccc2nsc(N=Nc3cc(Cl)c(O)cc3Cl)c2c1 | 4.7
N#CC(/N=N/c1ccc(S(N)(=O)=O)cc1)C(=O)c1ccccc1 (stereo not drawn) | 5.8
Oc1ccc(/N=N/c2nc3ccccc3s2)cc1Cl | 5.9
CCSc1nnc(/N=N/c2c(C(C)(C)C)nn3nc(C)[nH]c23)s1 | 5.5
COCCOc1ccc(N=NC2C(=O)N(c3ccccc3)N=C2C(N)=O)cc1S(N)(=O)=O (stereo not drawn) | 6.4
CC(=O)Nc1cc(N=Nc2nc(C)ns2)ccc1O [Dye 32, reference compound] | 5.2
O=C(Nc1cc(/N=N/c2nc(-c3ccccc3)no2)c2ccccc2c1O)c1ccncc1 | 5.5
Cc1nsc(/N=N/c2cc(Cl)c(O)cc2Cl)n1 [Dye 30, reference compound] | 3.8
Cc1nn2nc(C(C)(C)C)c(/N=N/c3cc(Cl)c(S(N)(=O)=O)cc3Cl)c2[nH]1 | 5.9
CC(=O)Nc1cc(/N=N/c2nc3ccccc3s2)ccc1O | 6.2
CCSc1nnc(/N=N/c2c(C(C)(C)C)nn3nc(C(C)C)[nH]c23)s1 [Dye 35, reference compound] | 4.7
CCc1nn2c(-c3ccc(OC)c(NS(C)(=O)=O)c3)n[nH]c2c1/N=N/c1nc(C(C)C)no1 [Dye 36, reference compound] | 5.2
